- assayNotes: Solubility in human plasma
- Type: ADME, cell-free
// reported solubility per item
measurementKind: solubility (µg/mL)

COc1ccc(/C=C\c2cc(OC)c(OC)c(OC)c2)cc1NC(=O)[C@@H](N)CO
3300
COc1ccc(/C=C\c2cc(OC)c(OC)c(OC)c2)cc1N
3300

* * *

- Tested on: MCF7
- assayNotes: Antiproliferative activity against human MCF7 cells assessed as inhibition of cell growth after 72 hrs by MTT assay
- Assay type: functional, cell-based
- conditionDescription: MCF7, 72 h
# note: boundary value 700 nM maps to 0.0; IC50 below it maps to 1.0

COc1ccc([C@H]2[C@H](c3ccccc3)C(=O)N2c2cc(OC)c(OC)c(OC)c2)cc1NC(=O)[C@@H](N)CCCCN
0.0
COc1ccc([C@H]2[C@H](c3ccccc3)C(=O)N2c2cc(OC)c(OC)c(OC)c2)cc1NC(=O)[C@@H](N)C(C)C
1.0
COc1ccc([C@H]2[C@H](c3cccs3)C(=O)N2c2cc(OC)c(OC)c(OC)c2)cc1OP(=O)(O)O
1.0
COc1ccc([C@H]2[C@H](c3ccccc3)C(=O)N2c2cc(OC)c(OC)c(OC)c2)cc1NC(=O)[C@@H](N)Cc1ccccc1
0.0
COc1ccc([C@H]2[C@H](c3ccccc3)C(=O)N2c2cc(OC)c(OC)c(OC)c2)cc1NC(=O)[C@@H](N)CO
0.0
COc1ccc([C@H]2[C@H](c3ccc(NC(=O)[C@@H](N)CO)cc3)C(=O)N2c2cc(OC)c(OC)c(OC)c2)cc1
0.0

This collection of values is drawn from ChEMBL document CHEMBL2331188.
